# tested-target: Son of sevenless homolog 1 (Homo sapiens)
# method-summary: Activation of SOS1 in human HeLa cells assessed as effect on ERK1/2 phosphorylation at T202/Y204 residue by measuring […] at 3.1 uM after 30 mins by Western blot analysis relative to control
# Type: cell-based
readout-name: fold change (FC)

INSERT INTO measurements (compound, readout_name, experimental_value) VALUES
  ('C[C@@H](Nc1nc(Nc2ccc(F)c(Cl)c2)nc2c(C3=CCNCC3)cccc12)C1CC1', 'fold change (FC)', 1.43),
  ('C[C@@H](Nc1nc(Nc2ccc(F)c(Cl)c2)nc2ccccc12)C1CC1', 'fold change (FC)', 1.16),
  ('C[C@@H](Nc1nc(Nc2ccc(F)c(Cl)c2)nc2c(CCN)cccc12)C1CC1', 'fold change (FC)', 1.11),
  ('C[C@@H](Nc1nc(Nc2ccc(F)c(Cl)c2)nc2c(CN)cccc12)C1CC1', 'fold change (FC)', 1.05);

---

# tested-target: Son of sevenless homolog 1 (Homo sapiens)
# method-summary: Activation of SOS1 in human HeLa cells assessed as effect on RAS-GTP levels by measuring […] at 3.1 uM after 30 mins by active RAS pull-down assay relative to control
# Assay type: cell-based
readout-name: fold change (FC)

INSERT INTO results (compound, readout_name, experimental_value) VALUES
  ('C[C@@H](Nc1nc(Nc2ccc(F)c(Cl)c2)nc2c(CN)cccc12)C1CC1', 'fold change (FC)', 1.15),
  ('C[C@@H](Nc1nc(Nc2ccc(F)c(Cl)c2)nc2c(C3=CCNCC3)cccc12)C1CC1', 'fold change (FC)', 1.41),
  ('C[C@@H](Nc1nc(Nc2ccc(F)c(Cl)c2)nc2ccccc12)C1CC1', 'fold change (FC)', 0.95),
  ('C[C@@H](Nc1nc(Nc2ccc(F)c(Cl)c2)nc2c(CCN)cccc12)C1CC1', 'fold change (FC)', 1.22);

---

# tested-target: Son of sevenless homolog 1 (Homo sapiens) (UniProt Q07889)
# Sequence (Q07889 whole entry): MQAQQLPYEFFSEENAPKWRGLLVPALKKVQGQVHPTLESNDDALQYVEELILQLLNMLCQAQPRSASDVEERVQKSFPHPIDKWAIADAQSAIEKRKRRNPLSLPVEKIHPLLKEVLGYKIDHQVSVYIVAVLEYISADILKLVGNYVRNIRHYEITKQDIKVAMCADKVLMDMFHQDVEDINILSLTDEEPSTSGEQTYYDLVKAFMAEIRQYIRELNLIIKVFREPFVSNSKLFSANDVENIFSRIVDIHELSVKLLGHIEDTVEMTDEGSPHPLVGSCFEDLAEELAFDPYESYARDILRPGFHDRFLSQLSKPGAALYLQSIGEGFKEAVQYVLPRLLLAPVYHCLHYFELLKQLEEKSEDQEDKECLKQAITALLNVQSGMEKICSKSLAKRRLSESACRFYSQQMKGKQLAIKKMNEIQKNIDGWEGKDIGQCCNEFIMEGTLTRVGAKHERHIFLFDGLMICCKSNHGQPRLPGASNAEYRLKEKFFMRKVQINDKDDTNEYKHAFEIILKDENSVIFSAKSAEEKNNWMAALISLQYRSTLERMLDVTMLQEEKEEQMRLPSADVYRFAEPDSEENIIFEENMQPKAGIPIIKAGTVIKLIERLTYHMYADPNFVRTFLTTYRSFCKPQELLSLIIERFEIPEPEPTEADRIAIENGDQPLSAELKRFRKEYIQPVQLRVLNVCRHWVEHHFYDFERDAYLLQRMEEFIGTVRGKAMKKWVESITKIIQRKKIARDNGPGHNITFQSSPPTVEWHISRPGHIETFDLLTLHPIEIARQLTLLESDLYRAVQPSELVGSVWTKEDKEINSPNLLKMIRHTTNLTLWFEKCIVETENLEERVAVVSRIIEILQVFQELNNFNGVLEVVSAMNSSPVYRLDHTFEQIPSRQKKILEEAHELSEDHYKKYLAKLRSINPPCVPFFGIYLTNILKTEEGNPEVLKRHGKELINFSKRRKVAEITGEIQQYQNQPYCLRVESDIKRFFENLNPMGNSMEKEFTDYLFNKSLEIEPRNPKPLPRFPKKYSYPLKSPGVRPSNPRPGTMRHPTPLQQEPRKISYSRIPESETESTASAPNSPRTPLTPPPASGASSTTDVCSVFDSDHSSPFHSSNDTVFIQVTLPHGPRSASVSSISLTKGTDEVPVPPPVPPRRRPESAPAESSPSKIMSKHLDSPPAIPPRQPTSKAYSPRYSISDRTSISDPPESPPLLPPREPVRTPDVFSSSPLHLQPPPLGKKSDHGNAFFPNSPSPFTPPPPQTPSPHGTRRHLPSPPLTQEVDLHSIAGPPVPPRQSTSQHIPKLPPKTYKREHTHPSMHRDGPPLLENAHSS
# method-summary: Activation of SOS1 in human HeLa cells assessed as effect on RAS-GTP levels by measuring […] at 25 uM after 30 mins by active RAS pull-down assay relative to control
# Assay type: cell-based
readout-name: fold change (FC)

Here's what some known entries look like.
INSERT INTO assay_data (compound, experimental_value) VALUES
  ('C[C@@H](Nc1nc(Nc2ccc(F)c(Cl)c2)nc2c(CN)cccc12)C1CC1', 1.18),
  ('C[C@@H](Nc1nc(Nc2ccc(F)c(Cl)c2)nc2c(C3=CCNCC3)cccc12)C1CC1', 1.6);

P: C[C@@H](Nc1nc(Nc2ccc(F)c(Cl)c2)nc2ccccc12)C1CC1
Q: C[C@@H](Nc1nc(Nc2ccc(F)c(Cl)c2)nc2c(CCN)cccc12)C1CC1
Higher fold change (FC) between P and Q ? Record your answer as the label of the chosen record.
Q
